test: NCI Yeast Anticancer Drug Screen. Data for the mec2-1 strain (AID 157); details: S. cerevisiae mec2-1 strain, at 5.0 µM (retest, dose inferred, filed as 0.5)
Compounds without any hit were thinned out: in the full panel of roughly 79,000, 15% have a hit. Calls of active or inactive are those of the source. No stated cut-off is given here; in the data, active means growth inhibition above about 70%; inactive means the rest.
Outcome (select one): active, inactive

The following compounds have reported results that may help.
CC1(C)C[C@H]2C=C(C=O)[C@]34C[C@]3(C(=O)OC4O)[C@H]2C1 (stereo partly specified): active
O=C1C=CC(=O)C1=Cc1ccc(Cl)c(Cl)c1: active
Nc1ncnc2c1ncn2C1OCC(OCc2ccccc2)C(OCc2ccccc2)C1OCc1ccccc1 (stereo unspecified): inactive
CCOC(=O)Nc1nc2ccc(Cn3cccc3)cc2[nH]1: inactive
CCCCCCCCCCCC[S+](C)C: inactive

Continue with the compound presented below.
Query: How did this test come out for CCc1ccccc1SC(C)=O ?
Reply: inactive

---

I'd be grateful if you could share measured growth inhibition for these entries.
assay: NCI Yeast Anticancer Drug Screen. Data for the rad50 strain (AID 155);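 further: 0% = growth of vehicle-only cultures of the same strain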; conditions: S. cerevisiae rad50 strain growth inhibition; at 5.0 µM (retest, dose inferred, filed as 0.5); hits give high values
This is part of a sample that, as a whole, favours compounds with a hit. Of some 79,000 tested, about 15% had one in any assay. Active and inactive are the calls of the source. No stated cut-off is given here; in the data, active means growth inhibition above about 70%; inactive means the rest.

These recorded examples may help you get a feel for the data.
CC(=O)Oc1ccccc1N(C(C)=O)S(=O)(=O)c1ccc(C)cc1: 16% (inactive)
CCOC(=O)/C(=C\c1cccc([N+](=O)[O-])c1)C(C)=O: 36% (inactive)
C/C(=N\Nc1n[nH]c(=S)n1N)c1c(O)cc(C)oc1=O: -28% (inactive)
COc1ccc2c(Cc3ccc(O)cc3)cncc2c1O: -1% (inactive)

Please report growth inhibition for every entry that follows.
1. CC/C(C)=N/OC(=O)Nc1ccccc1
2. OCc1c(-c2cccc3ccccc23)sc(-c2cccc3ccccc23)c1CO
3. Cc1cc(Cl)cc2c1NC(=O)C2(O)C(C)C(=O)c1ccc(Cl)cc1 (configuration not stated)
4. CC(=O)c1sc(Nc2ccc(Cl)c(Cl)c2)nc1C
5. CCC(C(c1ccc(Cl)cc1)c1ccc(Cl)c(Cl)c1)[N+](=O)[O-] (configuration not stated)

Reply:
1. 5% (inactive)
2. 59% (inactive)
3. -2% (inactive)
4. 8% (inactive)
5. 4% (inactive)

---

test: NCI Yeast Anticancer Drug Screen. Data for the mlh1 rad18 strain (AID 175); conditions: S. cerevisiae mlh1 rad18 strain growth inhibition; at 50.0 µM
The panel holds about 79,000 compounds, 15% with a hit somewhere; the sample as a whole holds those more often. Active and inactive are the calls of the source. No stated cut-off is given here; in the data, active means growth inhibition above about 70%; inactive means the rest.
Outcome (select one): yes (active), no (inactive)

The following compounds have reported results that may help.
O=C(Cc1nc2ccccc2s1)Nc1cccc(C(F)(F)F)c1: yes
Cc1ccc2c(C3Cc4ccccc4N3C(=O)/C=C\C(=O)O)c(C)[nH]c2c1 (stereo unspecified): yes
Cn1c(-c2ccc(/C=N/NC(=S)N/N=C/c3ccc(-c4c[n+]5ccsc5n4C)cc3)cc2)c[n+]2ccsc12: yes
O/N=C(/Cc1ccccc1)c1ccc2c(c1)OCO2: no
C/C(=N\NC(N)=S)c1ccc(C2CCCCC2)cc1: yes

Query: How did this test come out for CC(=O)OCc1ccc([N+](=O)[O-])o1 ?
Reply: yes

---

Experiment: NCI Yeast Anticancer Drug Screen. Data for the mec2-1 strain (AID 157)
Details: S. cerevisiae mec2-1 strain, at 5.0 µM (retest, dose inferred, filed as 0.5), hits give high values
Method: Growth inhibition of yeast strains with defined genetic alterations is measured as a screen for potential anti-cancer activity. Selected strains with alterations in DNA damage repair or cell cycle control were exposed to compounds and growth inhibition was measured relative to vehicle treated controls. The strain used in this assay is mec2-1
This is part of a sample that, as a whole, favours compounds with a hit. Of some 79,000 tested, about 15% had one in any assay.
Threshold rule: growth inhibition greater than or equal to 10% is true; below that, false.

COC(=O)C(CCC(=O)Cc1ccccc1)N1C(=O)c2ccccc2C1=O (configuration not stated): false
O=S(O)CCCCCSSc1ccc(Cl)cc1: false
O=C1C=C(c2ccccc2)OC1(Nc1ccccc1)c1ccccc1 (configuration not stated): false
CN1C(C)(C)CC(O)(C#N)CC1(C)C: false
CCOc1ccccc1/C=N/Nc1nnc(N/N=C/c2ccccc2OCC)c2ccccc12: false
CC(=O)OC1=CC(n2cc(F)c(=O)[nH]c2=O)OC(C)C1=O (configuration not stated): true
O=C(OCc1ccccc1)N1N=NC2C1C1CC(OCc3ccccc3)(OCc3ccccc3)C2O1 (configuration not stated): false
CC1CCC(SC2CC(=O)CCC2=O)CC1 (configuration not stated): true

Query: Identify whether the reported growth inhibition of the following molecule is 10% or greater: CCCc1cc(=O)oc2c3c(c4c(c12)OC(C)(C)CC4)O[C@H](C)[C@H](C)C3=O
Reply: false

Query: Identify whether the reported growth inhibition of the following molecule is 10% or greater: CCCCCCC/C=C\C(=O)O
Reply: false

Query: Identify whether the reported growth inhibition of the following molecule is 10% or greater: COc1cc2cnc(-c3ccccc3)cc2cc1OC
Reply: true

Query: Identify whether the reported growth inhibition of the following molecule is 10% or greater: CC(=O)Oc1c(Br)ccc2cc(C(Br)Br)c(C(=O)c3ccccc3)nc12
Reply: true

Query: Identify whether the reported growth inhibition of the following molecule is 10% or greater: CC1(CCC(=O)O)c2ccc3ccccc3c2Oc2c1ccc1ccccc21
Reply: true

Query: Identify whether the reported growth inhibition of the following molecule is 10% or greater: CC(=O)Oc1ccc2ccccc2c1CN(Cc1c(OC(C)=O)ccc2ccccc12)C(C)=O
Reply: false

Query: Identify whether the reported growth inhibition of the following molecule is 10% or greater: O=C1OCC2=C1C(c1ccc(Cl)cc1)c1cc3c(cc1O2)OCO3 (configuration not stated)
Reply: false

Query: Identify whether the reported growth inhibition of the following molecule is 10% or greater: O=NNc1ncccc1OCc1ccccc1
Reply: false

Query: Identify whether the reported growth inhibition of the following molecule is 10% or greater: O=C1CCC(C(c2ccccc2)(c2ccccc2)c2ccccc2)CC1=O (configuration not stated)
Reply: false

---

test: NCI Yeast Anticancer Drug Screen. Data for the sgs1 mgt1 strain (AID 161);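 further: 0% = growth of cultures given vehicle only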; settings: S. cerevisiae sgs1 mgt1 strain, at 5.0 µM (retest, dose inferred, filed as 0.5)
Compounds without any hit were thinned out: in the full panel of roughly 79,000, 15% have a hit. Calls of active or inactive are those of the source. Cut-off read from the data, not from the text of the source: active = growth inhibition above about 70%; inactive = the rest.
Outcome (select one): t (active), f (inactive)

COc1ccc(-c2nnc(C)nc2-c2ccc(OC)cc2)cc1: f
O=C1CC(c2ccccc2)NN1 (centres undefined): f
CC(C)=CCc1c(O)cc(O)c2c1OC(c1ccc(O)cc1)C(O)C2=O (centres undefined): f
Cc1ccc2nc(N/N=C/c3cccc(C)n3)cc(C)c2c1: f
N#CC(CCCCl)(c1ccccc1)c1ccccc1: f
Fc1ccc(NC2=NCCN=C(Nc3ccc(F)cc3)SS2)cc1: f
CCCCCCCCCCCCCC1OC(=O)C(C)=C1C(=O)O (centres undefined): f
CCO/C=C1N=C(/C=C/c2ccc(Cl)cc2)OC/1=O: f
COC1=C(Br)C(=O)N/C1=C(\OC)c1ccccc1: f
CC/C(=C\c1cccc(OC)c1)c1ccncc1: f

Query: How did this test come out for CC(=O)NNc1nc(C)c(C(=O)NNC(=O)C(=O)Nc2c(C)cccc2C(C)C)s1 ?
Reply: f

Query: How did this test come out for O=C1c2ccccc2S(=O)(=O)CC1Br (centres undefined) ?
Reply: f

Query: How did this test come out for O=C1c2ccccc2C(=O)c2cc(S(=O)(=O)Cl)ccc21 ?
Reply: t

Query: How did this test come out for COc1cc2c(cc1OC)C(C)N(C)c1c-2c(OC(C)=O)cc2cc(OC)c(OC)cc12 (centres undefined) ?
Reply: f

Query: How did this test come out for CCN(CC)CCCNc1c2c(Cl)cc(Cl)cc2nc2nc(=O)[nH]c(C)c12 ?
Reply: f

---

test: NCI Yeast Anticancer Drug Screen. Data for the mec2-1 strain (AID 157); details: S. cerevisiae mec2-1 strain, at 50.0 µM, hits give high values
The panel holds about 79,000 compounds, 15% with a hit somewhere; the sample as a whole holds those more often. The source made the active and inactive calls. Cut-off read from the data, not from the text of the source: active = growth inhibition above about 70%; inactive = the rest.
I'd be grateful if you could share measured growth inhibition for these entries.

These recorded examples may help you get a feel for the data.
CCOC(=O)/C(C#N)=C\c1ccc(N(CCC(=O)O)CCC(=O)O)c(I)c1: 33.5% (inactive)
O=C(O)/C=C/c1ccc2c(c1)CCCC2: 73% (active)
Nc1ccc2c(c1)S(=O)(=O)c1cc(N)ccc1-2: 18.8% (inactive)
CC(SC1=CC(=O)c2c(Cl)ccc(O)c2C1=O)C(=O)O (centres undefined): 1.25% (inactive)
COc1cc(C2c3cc4c(cc3[C@@H](Nc3cccc(O)c3)C3COC(=O)[C@H]23)OCO4)cc(OC)c1O (some centres undefined): 90.7% (active)

Please report growth inhibition for every entry that follows.
1. O=C1CN(CCN2CCOCC2)CC(=O)N2Cc3ccccc3CN12
2. Cc1noc(NS(=O)(=O)c2ccc(N=Nc3cc(N=Nc4ccc(S(=O)(=O)Nc5onc(C)c5C)cc4)c4c(NC(=O)C(Cl)Cl)cccc4c3O)cc2)c1C (tested in a mixture with another compound)
3. Cc1ccc(Nc2nc(C)c(C(/C=C/c3ccc4c(c3)OCO4)=N/Nc3ccc([N+](=O)[O-])cc3[N+](=O)[O-])s2)c([N+](=O)[O-])c1
4. O=C(CSSCC(=O)Nc1ccccc1)Nc1ccccc1
5. COc1ccc(OCC(O)CN2CCN(c3cccc(Cl)c3)CC2)cc1 (centres undefined)

Reply:
1: 24.1% (inactive); 2: 74.5% (active); 3: 69% (inactive); 4: 17.5% (inactive); 5: 37.6% (inactive)

Please report growth inhibition for every entry that follows.
1. COc1cc(OC)c(C(=O)[O][Sn]([c]2ccccc2)([c]2ccccc2)[c]2ccccc2)cc1OC
2. CCC(c1ccc(O)cc1)C(CC)c1ccc(O)c(CN(C)C)c1 (centres undefined)
3. CC(C)C1=CC2=CC(=O)C3C(C)(C)CCCC3(C)C2=C(O)C1=O (centres undefined)
4. O=[N+]([O-])c1cc2[nH]cnc2c([N+](=O)[O-])c1NCc1ccccc1
5. O=C1OC(c2cccc(Cl)c2)Sc2ccccc21 (centres undefined)
6. COc1ccc(C2CN(C(=O)c3ccccc3)N=C(c3ccccc3)O2)cc1 (centres undefined)
7. CCCc1cc(=O)oc2c3c(c4c(c12)OC(C)(C)CC4)O[C@H](C)[C@H](C)C3=O
8. C/C(=N/O)c1ccc2c(c1)C(C)c1ccccc1-2 (centres undefined)

Reply:
1: 96.3% (active); 2: 45.5% (inactive); 3: 89.8% (active); 4: 34.3% (inactive); 5: 19.4% (inactive); 6: 93.2% (active); 7: 91.6% (active); 8: 45.9% (inactive)

Query: Give growth inhibition for C[CH2][Sn]([CH2]C)([O]C(=O)c1cc(OC)c(OC)c(OC)c1)[O][Sn]([CH2]C)([CH2]C)[O]C(=O)c1cc(OC)c(OC)c(OC)c1
Reply: 12.7% (inactive)
